target: human Claudin18.2 (CLDN18.2) (human, UniProt P56856 1-261); assay: cell-based or functional assay
Label key: T means CDC EC50 under 20 nM; F means CDC EC50 of 20 nM or more.

Binder: chAb08 (antibody, V domains shown) VH: QVQLQQPGAELVKPGASVKLSCKASGYTFTSYLLHWVKQRPGQGLEWIGMIHPNGGSTNYNEKFKTKATLTVDKSSSTAYMQLSSLTSEDSAVYYCAPVYFGNSFAYWGQGTLVTVSA VL: DIVMTQSPSSLTVTAGEKVTMSCKSSQSLLNSGNQKNYLTWYQQKPGQPPKLLIYWASTRESGVPDRFTGSGSGTDFTLTISSVQAEDLAVYYCQNDYYYPFTFGSGTKLEKK
Category Label: T
--
Binder: chAb05 (antibody, V domains shown) VH: DVKLVESGEDLVKPGGSLKLSCAASGFTFSNYAMSWVRQTPEKRLEWVAYVSSGGDYIYYADTVKGRFIISRDNARNTLYLQMNSLRSEDTAMYYCARVYFGNSLDYWGQGTTLTVSS VL: DIVMTQSPSSLTVTAGEKVTLSCKSSQSLLNGGNQKNYLTWYQQRPGQPPKLLIYWASTRESGVPDRFTGSGSGTDFTLIISSVQAEDLAVYYCQNDYYYPWTFGGGTKLEIK
Category Label: T
--
Binder: chAb30 (antibody, V domains shown) VH: QVQLKESGPGLVAPSQSLSITCTVSGFSLTKFGVNWVRQPPGKGLEWLGAIWGDGSTNYHSALISRLSINKDNSKSQVFLKLSSLQNVDTATYYCAKSGYGNAMDYWGHGTSVTVSS VL: DIVMTQSPSSLTVTTGEKVTLNCKSSQSLLNSGNLKNYLTWYQQRPGQPPKLLIYWASTRESGVPYRFTGSGSGTDFTLTISNVQAEDLAIYYCQNDYFFPFTFGSGTKLEIK
Category Label: F
--
Binder: IMAB362 (Zolbetuximab) (antibody, V domains shown) VH: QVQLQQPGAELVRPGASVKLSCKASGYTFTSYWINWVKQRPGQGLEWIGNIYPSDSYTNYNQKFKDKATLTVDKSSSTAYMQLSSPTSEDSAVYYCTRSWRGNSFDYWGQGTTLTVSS VL: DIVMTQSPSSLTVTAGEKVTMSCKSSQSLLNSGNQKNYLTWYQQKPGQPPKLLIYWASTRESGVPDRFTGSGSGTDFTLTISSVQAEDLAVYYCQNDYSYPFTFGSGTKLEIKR
Category Label: F
--
Binder: chAb31 (antibody, V domains shown) VH: QIQLAQSGPELKKPGETVKISCKASGYSFTNYGMNWVKQAPGKGLKWMGWINTYSGETKYADDFKGRFDFSLETSARTAYLQIKNLKIEDTATYFCARRDAMDYWGQGTSVTVSS VL: DIVMTQAAPSVPVTPGESVSISCRSSKSLLNSNGNTYLYWFLQRPGQSPQLLIYRMSNLASGVPDRFSGSGSGTAFTLRISRVEAEDVGVYYCMQHLEFPFTFGSGTKLEIK
Category Label: F

FYI, the data here is from patent US20230095569A1.
